Taken from ChEMBL document CHEMBL5120922.

experiment: Metabolic stability in human liver microsomes assessed as compound remaining at 1 uM measured upto 60 mins in presence of NADPH; format: ADME, Microsome; conditions: read-out: Stability
Would you kindly list remaining at 1 h, 1 µM for each of these compounds?
// note: answer is a bare numeric in %

**Q:** I'd like to know its remaining at 1 h, 1 µM. The compound in question is "C[C@H]1CC[C@@H](c2nc3cccc(-c4cccnc4)c3c(=O)n2-c2ccccc2)N1c1nc(N)nc(N)c1C#N"
**A:** 32.6

**Q:** I'd like to know its remaining at 1 h, 1 µM. The compound in question is "CC(C)n1cc(-c2cccc3nc([C@@H]4CC[C@H](C)N4c4nc(N)nc(N)c4C#N)n(-c4ccccc4)c(=O)c23)cn1"
**A:** 40.4

**Q:** I'd like to know its remaining at 1 h, 1 µM. The compound in question is "C[C@H]1CC[C@@H](c2nc3cccc(-c4cnn(C)c4)c3c(=O)n2-c2ccccc2)N1c1nc(N)nc(N)c1C#N"
**A:** 64.7

**Q:** I'd like to know its remaining at 1 h, 1 µM. The compound in question is "CCn1cc(-c2cccc3nc([C@@H]4CC[C@H](C)N4c4nc(N)nc(N)c4C#N)n(-c4ccccc4)c(=O)c23)cn1"
**A:** 60

====

test: AUC(0 to t) in Sprague-Dawley rat at 10 mg/kg, po measured upto 24 hrs by LC-MS/MS analysis; type: ADME, organism-based; set-up: dose 10 mg/kg, time < 24 hrs, route po; settings: in vivo
assayMetric: AUC(0-t) at 24 h
The answer should read as a number with its unit following.

**Q:** I'd like to know its AUC(0-t) at 24 h. The compound in question is "C[C@H]1CC[C@@H](c2nc3cccc(Cl)c3c(=O)n2-c2cccnc2)N1c1nc(N)nc(N)c1C#N"
**A:** 2930 ng·h/mL

====

experiment: AUC(0 to t) in Sprague-Dawley rat at 2 mg/kg, iv measured upto 24 hrs by LC-MS/MS analysis; format: ADME, organism-based; design: time < 24 hrs, dose 2 mg/kg, route iv; conditions: in vivo
assayMetric: AUC(0-t) at 24 h
The answer should read as a number with its unit following.

**Q:** I'd like to know its AUC(0-t) at 24 h. The compound in question is "C[C@H]1CC[C@@H](c2nc3cccc(Cl)c3c(=O)n2-c2cccnc2)N1c1nc(N)nc(N)c1C#N"
**A:** 1150 ng·h/mL

====

Would you kindly list inhibition for each of these molecules?
target: Phosphatidylinositol 4,5-bisphosphate 3-kinase catalytic subunit delta isoform (Homo sapiens); assay: Inhibition of N-terminal His6-tagged recombinant full length human PI3Kdelta expressed in baculovirus infected Sf21 insect cells at 0.1 uM by HTRF assay relative to control
// note: answer is a bare numeric in %

**Q:** I'd like to know its inhibition. The molecule in question is "Cc1ccc(C#Cc2cccc3nc([C@@H]4CC[C@H](C)N4c4nc(N)nc(N)c4C#N)n(-c4ccccc4)c(=O)c23)cc1"
**A:** 56

**Q:** I'd like to know its inhibition. The molecule in question is "CC(C)n1cc(-c2cccc3nc([C@@H]4CC[C@H](C)N4c4nc(N)nc(N)c4C#N)n(-c4ccccc4)c(=O)c23)cn1"
**A:** 1

**Q:** I'd like to know its inhibition. The molecule in question is "Cc1cccc(C#Cc2cccc3nc([C@@H]4CC[C@H](C)N4c4nc(N)nc(N)c4C#N)n(-c4ccccc4)c(=O)c23)c1"
**A:** 64

**Q:** I'd like to know its inhibition. The molecule in question is "C[C@H]1CC[C@@H](c2nc3cccc(-c4cnn(C5CC5)c4)c3c(=O)n2-c2cccnc2)N1c1nc(N)nc(N)c1C#N"
**A:** 21

====

Would you kindly list inhibition for each of these compounds?
biological target: Phosphatidylinositol 4,5-bisphosphate 3-kinase catalytic subunit delta isoform (Homo sapiens) (UniProt O00329); assay: Inhibition of N-terminal His6-tagged recombinant full length human PI3Kdelta expressed in baculovirus infected Sf21 insect cells at 0.1 uM by HTRF assay relative to control
Sequence (O00329 whole entry, canonical isoform): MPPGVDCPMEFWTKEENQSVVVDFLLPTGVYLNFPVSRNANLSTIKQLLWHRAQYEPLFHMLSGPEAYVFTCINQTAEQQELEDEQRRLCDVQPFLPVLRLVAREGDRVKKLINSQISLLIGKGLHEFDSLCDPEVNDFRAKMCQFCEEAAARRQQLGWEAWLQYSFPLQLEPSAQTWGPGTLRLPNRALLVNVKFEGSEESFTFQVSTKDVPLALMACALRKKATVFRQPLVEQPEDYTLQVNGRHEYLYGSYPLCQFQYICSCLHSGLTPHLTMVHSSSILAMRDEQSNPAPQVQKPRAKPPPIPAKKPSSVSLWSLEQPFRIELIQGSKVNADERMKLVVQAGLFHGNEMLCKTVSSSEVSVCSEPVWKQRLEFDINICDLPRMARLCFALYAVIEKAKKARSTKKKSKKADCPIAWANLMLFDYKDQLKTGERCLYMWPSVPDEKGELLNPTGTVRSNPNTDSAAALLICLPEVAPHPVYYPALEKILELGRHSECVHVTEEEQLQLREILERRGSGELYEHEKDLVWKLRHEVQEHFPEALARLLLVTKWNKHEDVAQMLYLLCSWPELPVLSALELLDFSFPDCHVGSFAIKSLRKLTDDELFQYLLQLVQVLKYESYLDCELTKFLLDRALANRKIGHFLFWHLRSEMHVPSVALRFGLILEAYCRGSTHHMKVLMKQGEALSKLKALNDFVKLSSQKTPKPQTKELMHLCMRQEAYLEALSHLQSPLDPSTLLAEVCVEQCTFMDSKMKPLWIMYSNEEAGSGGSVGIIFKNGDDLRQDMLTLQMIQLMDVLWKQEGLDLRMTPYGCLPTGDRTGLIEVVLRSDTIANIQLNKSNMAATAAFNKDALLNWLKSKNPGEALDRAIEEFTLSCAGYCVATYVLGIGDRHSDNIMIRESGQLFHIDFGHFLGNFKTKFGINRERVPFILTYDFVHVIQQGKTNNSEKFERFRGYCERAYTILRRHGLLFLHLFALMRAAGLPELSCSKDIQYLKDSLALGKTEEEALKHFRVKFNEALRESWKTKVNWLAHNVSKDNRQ
// note: answer is a bare numeric in %

**Q:** I'd like to know its inhibition. The compound in question is "C[C@H]1CC[C@@H](c2nc3cccc(C#Cc4ccsc4)c3c(=O)n2-c2ccccc2)N1c1nc(N)nc(N)c1C#N"
**A:** 5

**Q:** I'd like to know its inhibition. The compound in question is "C[C@H]1CC[C@@H](c2nc3cccc(Cl)c3c(=O)n2-c2ccccc2)N1c1nc(F)nc2[nH]cnc12"
**A:** 27

**Q:** I'd like to know its inhibition. The compound in question is "Cc1cccc2nc([C@@H]3CC[C@H](C)N3c3nc(N)nc(N)c3C#N)n(-c3cccnc3)c(=O)c12"
**A:** -2

**Q:** I'd like to know its inhibition. The compound in question is "Cc1ccccc1C#Cc1cccc2nc([C@@H]3CC[C@H](C)N3c3nc(N)nc(N)c3C#N)n(-c3ccccc3)c(=O)c12"
**A:** 62

====

Would you kindly list inhibition for each of these compounds?
target: Phosphatidylinositol 4,5-bisphosphate 3-kinase catalytic subunit alpha isoform (Homo sapiens, UniProt P42336); experiment: Inhibition of N-terminal His6-tagged recombinant full length human PI3Kalpha expressed in baculovirus infected Sf21 insect cells at 1 uM by HTRF assay relative to control
Sequence (P42336 whole entry, canonical isoform): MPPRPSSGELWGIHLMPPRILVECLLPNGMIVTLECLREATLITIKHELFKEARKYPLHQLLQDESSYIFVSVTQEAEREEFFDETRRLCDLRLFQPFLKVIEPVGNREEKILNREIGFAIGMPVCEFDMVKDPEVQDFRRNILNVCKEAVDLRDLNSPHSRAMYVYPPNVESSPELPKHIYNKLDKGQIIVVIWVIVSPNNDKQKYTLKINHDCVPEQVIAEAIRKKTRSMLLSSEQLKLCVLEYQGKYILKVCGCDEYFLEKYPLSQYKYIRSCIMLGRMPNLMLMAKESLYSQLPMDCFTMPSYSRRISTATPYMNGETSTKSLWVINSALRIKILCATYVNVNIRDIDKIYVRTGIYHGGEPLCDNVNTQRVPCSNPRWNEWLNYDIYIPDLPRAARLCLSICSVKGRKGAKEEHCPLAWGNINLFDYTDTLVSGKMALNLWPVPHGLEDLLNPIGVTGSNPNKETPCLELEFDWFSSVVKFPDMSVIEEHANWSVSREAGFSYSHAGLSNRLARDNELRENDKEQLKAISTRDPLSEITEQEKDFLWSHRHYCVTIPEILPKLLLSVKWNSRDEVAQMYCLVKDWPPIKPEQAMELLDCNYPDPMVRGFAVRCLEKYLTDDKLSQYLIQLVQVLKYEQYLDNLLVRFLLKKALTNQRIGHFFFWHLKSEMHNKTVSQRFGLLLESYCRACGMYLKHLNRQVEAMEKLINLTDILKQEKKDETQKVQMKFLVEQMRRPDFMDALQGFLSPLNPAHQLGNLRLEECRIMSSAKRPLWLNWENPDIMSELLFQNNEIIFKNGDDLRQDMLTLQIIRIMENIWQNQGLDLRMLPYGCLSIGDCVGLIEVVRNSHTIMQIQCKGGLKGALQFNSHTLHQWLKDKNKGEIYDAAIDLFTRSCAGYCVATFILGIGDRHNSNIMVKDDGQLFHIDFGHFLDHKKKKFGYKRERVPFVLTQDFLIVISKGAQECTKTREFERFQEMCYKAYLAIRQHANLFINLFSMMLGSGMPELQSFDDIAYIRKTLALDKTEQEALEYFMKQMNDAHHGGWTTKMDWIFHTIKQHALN

**Q:** I'd like to know its inhibition. The compound in question is "COc1cncc(-c2cccc3nc([C@@H]4CC[C@H](C)N4c4nc(N)nc(N)c4C#N)n(-c4cccnc4)c(=O)c23)c1"
**A:** 10%

**Q:** I'd like to know its inhibition. The compound in question is "Cc1ccccc1C#Cc1cccc2nc([C@@H]3CC[C@H](C)N3c3nc(N)nc(N)c3C#N)n(-c3ccccc3)c(=O)c12"
**A:** 23%

**Q:** I'd like to know its inhibition. The compound in question is "CCCn1cc(-c2cccc3nc([C@@H]4CC[C@H](C)N4c4nc(N)nc(N)c4C#N)n(-c4ccccc4)c(=O)c23)cn1"
**A:** 5%

**Q:** I'd like to know its inhibition. The compound in question is "C[C@H]1CC[C@@H](c2nc3cccc(-c4cccnc4)c3c(=O)n2-c2ccccc2)N1c1nc(N)nc(N)c1C#N"
**A:** -7%

**Q:** I'd like to know its inhibition. The compound in question is "C[C@H]1CC[C@@H](c2nc3cccc(Cl)c3c(=O)n2-c2ccccc2)N1c1cc(Cl)nc(N)n1"
**A:** 88%

**Q:** I'd like to know its inhibition. The compound in question is "C[C@H]1CC[C@@H](c2nc3cccc(Cl)c3c(=O)n2-c2ccccc2)N1c1nc(F)nc2[nH]cnc12"
**A:** 49%

====

assay: Clearance in Sprague-Dawley rat at 5 mg/kg, iv measured upto 24 hrs by LC-MS/MS analysis; format: ADME, organism-based; details: in vivo
assayMetric: clearance (mL/min/kg)
// note: answer is a bare numeric in mL/min/kg

**Q:** I'd like to know its clearance. The compound in question is "C[C@H]1CC[C@@H](c2nc3cccc(Cl)c3c(=O)n2-c2cccnc2)N1c1nc(N)nc(N)c1C#N"
**A:** 12.5

====

Would you kindly list inhibition for each of these compounds?
target: Phosphatidylinositol 4,5-bisphosphate 3-kinase catalytic subunit beta isoform (Homo sapiens); assay: Inhibition of N-terminal His6-tagged recombinant full length human PI3Kbeta expressed in baculovirus infected Sf21 insect cells at 1 uM by HTRF assay relative to control
Sequence (P42338 whole entry, looked up, canonical isoform): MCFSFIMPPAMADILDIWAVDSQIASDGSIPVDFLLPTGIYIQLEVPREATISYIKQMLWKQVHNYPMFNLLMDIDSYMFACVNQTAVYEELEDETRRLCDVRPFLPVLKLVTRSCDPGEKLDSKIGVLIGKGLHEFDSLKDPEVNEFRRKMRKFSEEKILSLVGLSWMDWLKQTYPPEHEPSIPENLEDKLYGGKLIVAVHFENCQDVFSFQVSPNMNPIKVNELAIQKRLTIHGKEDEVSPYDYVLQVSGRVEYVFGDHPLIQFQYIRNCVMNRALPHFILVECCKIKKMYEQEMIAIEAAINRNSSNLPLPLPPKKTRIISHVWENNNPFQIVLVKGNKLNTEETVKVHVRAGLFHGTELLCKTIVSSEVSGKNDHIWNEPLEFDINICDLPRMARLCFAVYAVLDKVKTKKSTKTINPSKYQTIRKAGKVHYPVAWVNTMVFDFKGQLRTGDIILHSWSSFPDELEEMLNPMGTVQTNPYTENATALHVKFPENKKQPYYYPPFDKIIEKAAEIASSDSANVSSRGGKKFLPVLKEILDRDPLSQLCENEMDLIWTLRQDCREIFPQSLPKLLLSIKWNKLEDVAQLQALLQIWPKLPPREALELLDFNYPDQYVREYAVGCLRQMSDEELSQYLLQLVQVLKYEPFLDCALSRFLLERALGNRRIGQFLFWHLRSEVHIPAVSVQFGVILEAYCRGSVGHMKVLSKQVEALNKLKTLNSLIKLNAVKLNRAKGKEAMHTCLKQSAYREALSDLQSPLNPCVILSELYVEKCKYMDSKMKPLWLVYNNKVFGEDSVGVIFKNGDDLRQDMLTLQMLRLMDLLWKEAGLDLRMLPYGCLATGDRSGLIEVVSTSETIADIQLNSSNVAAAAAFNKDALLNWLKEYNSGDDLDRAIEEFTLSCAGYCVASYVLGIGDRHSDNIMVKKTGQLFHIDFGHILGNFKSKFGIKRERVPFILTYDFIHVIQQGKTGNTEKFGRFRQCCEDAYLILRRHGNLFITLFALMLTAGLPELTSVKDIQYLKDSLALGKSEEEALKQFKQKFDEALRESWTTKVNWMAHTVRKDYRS
// note: answer is a bare numeric in %

**Q:** I'd like to know its inhibition. The compound in question is "C[C@H]1CC[C@@H](c2nc3cccc(Cl)c3c(=O)n2-c2ccccc2)N1c1cc(Cl)nc(N)n1"
**A:** 92

**Q:** I'd like to know its inhibition. The compound in question is "C[C@H]1CC[C@@H](c2nc3cccc(Cl)c3c(=O)n2-c2ccccc2)N1c1ccnc(N)n1"
**A:** 106

**Q:** I'd like to know its inhibition. The compound in question is "COc1ccc(C#Cc2cccc3nc([C@@H]4CC[C@H](C)N4c4nc(N)nc(N)c4C#N)n(-c4ccccc4)c(=O)c23)cc1"
**A:** 62

**Q:** I'd like to know its inhibition. The compound in question is "Cc1cccc2nc([C@@H]3CC[C@H](C)N3c3nc(N)nc(N)c3C#N)n(-c3cccnc3)c(=O)c12"
**A:** -3

====

Would you kindly list inhibition for each of these molecules?
biological target: Phosphatidylinositol 4,5-bisphosphate 3-kinase catalytic subunit alpha isoform (Homo sapiens, UniProt P42336); assay: Inhibition of N-terminal His6-tagged recombinant full length human PI3Kalpha expressed in baculovirus infected Sf21 insect cells at 1 uM by HTRF assay relative to control
// note: answer is a bare numeric in %

**Q:** I'd like to know its inhibition. The molecule in question is "C[C@H]1CC[C@@H](c2nc3cccc(Cl)c3c(=O)n2-c2ccccc2)N1c1nc(N)nc2[nH]cnc12"
**A:** 78

**Q:** I'd like to know its inhibition. The molecule in question is "C[C@H]1CC[C@@H](c2nc3cccc(Cl)c3c(=O)n2-c2ccccc2)N1c1nc(N)nc(N)c1C#N"
**A:** 13

**Q:** I'd like to know its inhibition. The molecule in question is "COc1cncc(-c2cccc3nc([C@@H]4CC[C@H](C)N4c4nc(N)nc(N)c4C#N)n(-c4ccccc4)c(=O)c23)c1"
**A:** 13

**Q:** I'd like to know its inhibition. The molecule in question is "C[C@H]1CC[C@@H](c2nc3cccc(Cl)c3c(=O)n2-c2cc(F)cc(F)c2)N1c1nc(N)nc2[nH]cnc12"
**A:** 90

**Q:** I'd like to know its inhibition. The molecule in question is "C[C@H]1CC[C@@H](c2nc3cccc(-c4cnn(C)c4)c3c(=O)n2-c2ccccc2)N1c1nc(N)nc(N)c1C#N"
**A:** -1

**Q:** I'd like to know its inhibition. The molecule in question is "Cc1cccc2nc([C@@H]3CC[C@H](C)N3c3nc(N)nc(N)c3C#N)n(-c3cccnc3)c(=O)c12"
**A:** 20

**Q:** I'd like to know its inhibition. The molecule in question is "C[C@H]1CC[C@@H](c2nc3cccc(C#Cc4ccccn4)c3c(=O)n2-c2ccccc2)N1c1nc(N)nc(N)c1C#N"
**A:** 11

**Q:** I'd like to know its inhibition. The molecule in question is "C[C@H]1CC[C@@H](c2nc3cccc(F)c3c(=O)n2-c2cccnc2)N1c1nc(N)nc(N)c1C#N"
**A:** 44
